# TARGET SYSTEM: UniProt:P11387
# Sequence (P11387 whole entry): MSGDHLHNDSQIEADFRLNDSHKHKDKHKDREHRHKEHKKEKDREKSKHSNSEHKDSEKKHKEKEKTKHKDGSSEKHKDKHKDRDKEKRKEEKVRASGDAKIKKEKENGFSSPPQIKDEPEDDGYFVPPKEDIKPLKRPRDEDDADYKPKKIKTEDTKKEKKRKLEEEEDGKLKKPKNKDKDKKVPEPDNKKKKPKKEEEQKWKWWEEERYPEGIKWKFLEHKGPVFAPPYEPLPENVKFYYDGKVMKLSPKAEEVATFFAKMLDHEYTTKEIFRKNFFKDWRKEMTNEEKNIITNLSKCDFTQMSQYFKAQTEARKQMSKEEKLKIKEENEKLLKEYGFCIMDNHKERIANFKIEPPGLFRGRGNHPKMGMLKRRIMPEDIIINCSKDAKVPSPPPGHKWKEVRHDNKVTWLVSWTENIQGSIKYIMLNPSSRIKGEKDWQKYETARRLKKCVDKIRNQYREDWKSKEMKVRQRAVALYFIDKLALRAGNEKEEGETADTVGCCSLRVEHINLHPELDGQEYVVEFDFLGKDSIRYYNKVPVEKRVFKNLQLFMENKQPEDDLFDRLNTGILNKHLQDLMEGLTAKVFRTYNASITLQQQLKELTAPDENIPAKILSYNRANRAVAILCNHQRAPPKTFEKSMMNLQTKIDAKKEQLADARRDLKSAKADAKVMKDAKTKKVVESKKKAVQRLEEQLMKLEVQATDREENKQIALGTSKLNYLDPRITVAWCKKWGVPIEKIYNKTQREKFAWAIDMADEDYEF
# TEST DETAILS: Inhibition of recombinant human topoisomerase 1-mediated relaxation of supercoiled pBR322 DNA at 50 uM incubated for 30 mins by agarose gel electrophoresis
The source made the active and inactive calls. The calls are words filed in the database; no cut-off is given here.
ASSAY READOUT: inhibition

Please review the entries below; each comes with its answer.
> print(dat)
                                test.smiles   target.system  value.observed
1  CN1CCN(CCCn2c(N)c(-c3nc4ccccc4[nH]3)c3nc(C#N)c(C#N)nc32)CC1  UniProt:P11387        inactive
2  N#Cc1nc2c(-c3nc4ccccc4[nH]3)c(N)n(CCCO)c2nc1C#N  UniProt:P11387        inactive
3  N#Cc1nc2c(-c3nc4ccccc4[nH]3)c(N)n(CCCN3CCOCC3)c2nc1C#N  UniProt:P11387        inactive
4  COc1ccc(CCn2c(N)c(-c3nc4ccccc4[nH]3)c3nc(C#N)c(C#N)nc32)cc1  UniProt:P11387        inactive
5  CN1CCN(CCn2c(N)c(-c3nc4ccccc4[nH]3)c3nc(C#N)c(C#N)nc32)CC1  UniProt:P11387        inactive

Quick one: inhibition for N#Cc1nc2c(-c3nc4ccccc4[nH]3)c(N)n(CCN3CCCC3)c2nc1C#N ?
inactive

Next: Cn1c(N)c(-c2nc3ccccc3[nH]2)c2nc(C#N)c(C#N)nc21
inactive

Next: N#Cc1nc2c(-c3nc4ccccc4[nH]3)c(N)n(CCCN3CCCCC3)c2nc1C#N
inactive

Next: CN(C)CCn1c(N)c(-c2nc3ccccc3s2)c2nc(C#N)c(C#N)nc21
inactive

###

# TEST DETAILS: Antiproliferative activity against human MDA-MB-201 cells after 48 hrs by MTT assay
# Type: functional, cell-based
ASSAY READOUT: pIC50
Interpret pIC50 as the negative base-10 log of the concentration measured in mol/L.

> print(dat)
                                test.smiles  assay.readout  value.observed
1  CN(C)CCCn1c(N)c(-c2nc3ccccc3n2C)c2nc(C#N)c(C#N)nc21          pIC50            5.44

Quick one: pIC50 for CCN(CC)CCCn1c(N)c(-c2nc3cc(Cl)ccc3[nH]2)c2nc(C#N)c(C#N)nc21 ?
4.64

Next: CN(C)CCCn1c(N)c(-c2nc3ccccc3[nH]2)c2nc(C#N)c(C#N)nc21
5.74

Next: CCN(CC)CCCCn1c(N)c(-c2nc3ccccc3[nH]2)c2nc(C#N)c(C#N)nc21
6.19

###

# System: A549
# TEST DETAILS: Antiproliferative activity against human A549 cells after 48 hrs by MTT assay
# Assay type: functional, cell-based
# RUN CONDITIONS: A549, 48 h
pIC50: −log10 of the molar value.
ASSAY READOUT: pIC50

> print(dat)
                                test.smiles  assay.readout  value.observed
1  CCCCn1c(N)c(-c2nc3ccccc3[nH]2)c2nc(C#N)c(C#N)nc21          pIC50          < 4.30
2  CN(C)CCCn1c(N)c(-c2nc3cc(Cl)ccc3[nH]2)c2nc(C#N)c(C#N)nc21          pIC50          < 4.30
3  N#Cc1nc2c(-c3nc4ccccc4[nH]3)c(N)n(CCN3CCCC3)c2nc1C#N          pIC50          < 4.30

Any idea what pIC50 came out for CCN(CC)CCCn1c(N)c(-c2nc3ccccc3n2C)c2nc(C#N)c(C#N)nc21 on A549?
4.97

Next: CN(C)CCn1c(N)c(-c2nc3cc(Cl)ccc3[nH]2)c2nc(C#N)c(C#N)nc21
< 4.30
